molecular target: hCB1 (Homo sapiens, UniProt P21554); construct: host or cells: CHO-K1 beta-arrestin cells; assay: radioligand binding assay with [^3H]CP55940, hCB1
Sequence (P21554 whole entry): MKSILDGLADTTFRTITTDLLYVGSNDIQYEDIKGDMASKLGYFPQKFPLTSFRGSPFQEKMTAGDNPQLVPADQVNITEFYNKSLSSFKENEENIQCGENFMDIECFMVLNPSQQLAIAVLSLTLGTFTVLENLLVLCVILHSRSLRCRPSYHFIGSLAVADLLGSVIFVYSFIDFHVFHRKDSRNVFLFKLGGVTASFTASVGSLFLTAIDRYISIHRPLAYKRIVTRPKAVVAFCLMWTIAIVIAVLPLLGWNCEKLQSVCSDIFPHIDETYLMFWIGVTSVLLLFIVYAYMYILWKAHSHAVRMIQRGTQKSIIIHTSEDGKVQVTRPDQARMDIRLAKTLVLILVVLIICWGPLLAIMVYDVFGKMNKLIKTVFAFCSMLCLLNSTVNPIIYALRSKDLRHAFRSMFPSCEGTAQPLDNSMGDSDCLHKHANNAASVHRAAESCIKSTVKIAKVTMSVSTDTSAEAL
reported.metric: pKi
Entry type: numeric. Quantity: pKi, the -log10 of concentration in molar units.

So what does the record say about pKi for COc1ccc2ncc(NCCCc3nc(-c4ccc(F)cc4Cl)no3)cc2c1 [MA2] ? 5.79

====

biological target: hCB2 (Homo sapiens, UniProt P34972); construct: host or cells: CHO-K1 beta-arrestin cells; test: functional cAMP assay, hCB2; format: cell-based; conditions: CHO-K1 cells expressing hCB2; read-out: hCB2 cAMP EC50
Sequence (P34972 whole entry): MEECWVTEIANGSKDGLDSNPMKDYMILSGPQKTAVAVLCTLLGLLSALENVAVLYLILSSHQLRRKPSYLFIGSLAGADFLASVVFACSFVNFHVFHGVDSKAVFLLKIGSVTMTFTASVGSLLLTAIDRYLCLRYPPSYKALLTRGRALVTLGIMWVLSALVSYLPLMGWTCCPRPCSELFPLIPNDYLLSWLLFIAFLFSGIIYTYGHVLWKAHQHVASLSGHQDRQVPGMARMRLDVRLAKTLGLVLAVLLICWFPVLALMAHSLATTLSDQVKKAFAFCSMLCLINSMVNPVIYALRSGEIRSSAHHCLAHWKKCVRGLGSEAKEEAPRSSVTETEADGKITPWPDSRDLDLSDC
reported.metric: EC50 (nM)
Dear colleague, please return just the value in nM, with no unit written.

So what does the record say about EC50 for Fc1ccc(-c2noc(CCCNc3cnc4ccc(OC(F)(F)F)cc4c3)n2)c(Cl)c1 [Compound 12, reference compound] ? 0.15

So what does the record say about EC50 for FCCOc1ccc2ncc(NCCCc3nc(-c4ccc(F)cc4Cl)no3)cc2c1 ? 0.13

So what does the record say about EC50 for CCCCOc1c(OC)ccc2cc(C(=O)NC3CCCCC3)c(=O)[nH]c12 [NE40, reference compound] ? 8
